Conditions: siRNA; also: test system not given here
HELM strings list units from the 5' end as sugar, base in round brackets, then linkage (d deoxyribose, r ribose, m 2'-O-methyl, p phosphodiester). Strings are as the collection lists them, not checked against the first reports. ss, as = sense and antisense strand; [lna] = locked nucleic acid (LNA)
Reported target mRNA knockdown values follow for various substances
The answer consists of two parts: a number and, after it, its unit.

Lookup: Complete the entry with target mRNA knockdown for RNA1{[lna](T)p.r(G)p.[lna](A)p.r(G)p.[lna](A)p.r(G)p.r(A)p.r(A)p.[lna](A)p.r(G)p.r(C)p.[lna](A)p.r(C)p.[lna](A)p.r(G)p.r(A)p.[lna](A)p.r(A)p.r(A)p.[lna](T)p.[lna](T)}|RNA2{r(U)p.r(G)p.r(A)p.r(G)p.r(A)p.r(G)p.r(A)p.r(A)p.r(A)p.r(G)p.r(C)p.r(A)p.r(C)p.r(A)p.r(G)p.r(A)p.r(A)p.r(A)p.r(A)p.d(T)p.d(T)}$$$RNA1{StrandType:ss}|RNA2{StrandType:as}$
Found: 64%

Lookup: Fill in target mRNA knockdown for record RNA1{m(A)p.r(G)p.m(A)p.r(A)p.m(A)p.r(A)p.m(G)p.r(C)p.m(A)p.r(G)p.m(C)p.r(G)p.m(A)p.r(U)p.m(A)p.r(C)p.m(G)p.r(C)p.m(U)p.r(T)p.r(T)}|RNA2{r(A)p.r(G)p.r(C)p.r(G)p.r(U)p.r(A)p.r(U)p.r(C)p.r(G)p.r(C)p.r(U)p.r(G)p.r(C)p.r(U)p.r(U)p.r(U)p.r(U)p.r(C)p.r(U)p.r(T)p.r(T)}$$$RNA1{StrandType:ss}|RNA2{StrandType:as}$
Found: 34%

###

Conditions: siRNA
HELM strings list units from the 5' end as sugar, base in round brackets, then linkage (d deoxyribose, r ribose, m 2'-O-methyl, p phosphodiester). Strings are as the collection lists them, not checked against the first reports. ss, as = sense and antisense strand
target mRNA knockdown listing for selected substances.
Just the number please, in %, no unit attached.

RNA1{r(A)p.r(G)p.r(A)p.r(G)p.r(G)p.r(A)p.r(C)p.r(C)p.m(U)p.r(A)p.r(G)p.r(A)p.r(A)p.r(G)p.r(G)p.r(C)p.r(G)p.r(G)p.r(C)p.r(T)p.r(T)}|RNA2{r(G)p.r(C)p.r(C)p.r(G)p.r(C)p.r(C)p.m(U)p.m(U)p.r(C)p.m(U)p.r(A)p.r(G)p.r(G)p.m(U)p.r(C)p.r(C)p.m(U)p.r(C)p.m(U)p.r(T)p.r(T)}$$$RNA1{StrandType:ss}|RNA2{StrandType:as}$	72

// below: target mRNA knockdown requested for another substance
Lookup: Input RNA1{r(G)p.r(A)p.r(A)p.r(G)p.r(A)p.r(G)p.r(C)p.r(C)p.m(U)p.r(A)p.m(C)p.r(A)p.r(C)p.r(A)p.r(A)p.r(C)p.r(C)p.r(C)p.r(U)p.r(T)p.r(T)}|RNA2{r(A)p.r(G)p.r(G)p.r(G)p.r(U)p.r(U)p.r(G)p.m(U)p.r(G)p.m(U)p.r(A)p.r(G)p.r(G)p.r(C)p.r(U)p.r(C)p.r(U)p.r(U)p.r(C)p.r(T)p.r(T)}$$$RNA1{StrandType:ss}|RNA2{StrandType:as}$ , output reported target mRNA knockdown.
Found: 76
